These entries and their values trace back to the supplement of paper PMC10307832.

- Test system: HCC-44
- Assay method text: relative viability (nuclei count vs DMSO), 5 days (fraction); higher = more cells survive
- Condition parameters: first compound 0.08 µM
Measurement kind: relative viability
// response body must contain only the number

Field: example entries. Status: answers known.
C=C1C(=O)O[C@@H](CCCCCCCC)[C@@H]1C(=O)O [C-75] + NC(=O)Nc1cc(-c2cccc(F)c2)sc1C(=O)N[C@H]1CCCNC1 [AZD7762] (partner 0.2 µM): 1.03
Oc1nc(-c2ccc(C(F)(F)F)cc2)nc2c1CSCC2 [XAV939] + Cc1nc(NC(=O)N2CCC[C@H]2C(N)=O)sc1-c1ccnc(C(C)(C)C(F)(F)F)c1 [Alpelisib] (partner 2 µM): 0.953
Oc1nc(-c2ccc(C(F)(F)F)cc2)nc2c1CSCC2 [XAV939] + CS(=O)(=O)N1CCN(Cc2cc3nc(-c4cccc5[nH]ncc45)nc(N4CCOCC4)c3s2)CC1 [Pictilisib] (partner 1 µM): 0.748
Oc1nc(-c2ccc(C(F)(F)F)cc2)nc2c1CSCC2 [XAV939] + COc1cccc2cc(-c3nc([C@H]4CC[C@H](C(=O)O)CC4)n4ncnc(N)c34)[nH]c12 [OSI-027] (partner 0.5 µM): 0.611
C=C1C(=O)O[C@@H](CCCCCCCC)[C@@H]1C(=O)O [C-75] + CC1(C)CCC(c2ccc(Cl)cc2)=C(CN2CCN(c3ccc(C(=O)NS(=O)(=O)c4ccc(N[C@H](CCN5CCOCC5)CSc5ccccc5)c(S(=O)(=O)C(F)(F)F)c4)cc3)CC2)C1 [Navitoclax] (partner 0.5 µM): 0.972

Let us examine a further case.
Look up relative viability: C=C1C(=O)O[C@@H](CCCCCCCC)[C@@H]1C(=O)O [C-75] + Cc1nc(NC(=O)N2CCC[C@H]2C(N)=O)sc1-c1ccnc(C(C)(C)C(F)(F)F)c1 [Alpelisib] (partner 2 µM)
0.742
